Measured inhibition at 11 µM of individual entries
Target: untagged HECT of NEDD4 wild-type (WT) (E3 ligase) (Homo sapiens)
Construct: untagged HECT of NEDD4 wild-type (WT) (E3 ligase); made in house
Sequence (P46934 519-900 isoform P46934-4 limits assumed): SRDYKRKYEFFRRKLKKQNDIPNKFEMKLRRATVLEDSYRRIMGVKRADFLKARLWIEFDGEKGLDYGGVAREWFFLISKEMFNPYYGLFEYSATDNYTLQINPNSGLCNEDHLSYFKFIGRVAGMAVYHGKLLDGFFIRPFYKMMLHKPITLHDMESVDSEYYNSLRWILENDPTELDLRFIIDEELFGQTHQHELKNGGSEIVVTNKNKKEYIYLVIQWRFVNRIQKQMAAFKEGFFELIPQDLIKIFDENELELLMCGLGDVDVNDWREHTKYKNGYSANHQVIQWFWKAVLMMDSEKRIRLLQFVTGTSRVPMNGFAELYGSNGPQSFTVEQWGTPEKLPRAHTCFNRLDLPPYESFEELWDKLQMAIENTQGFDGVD
Experiment: In vitro ubiquitination assay TR-FRET based (self-ubiquitination of NEDD4)
Assay type: biochemical
Conditions: at 11 μM; pre-incubated for 1 hour; AUC of 120 minutes kinetic; read-out: percentages of inhibition (NEDD4)
Counter-ions that a name gives are not always drawn.

# Compound, Test System, inhibition at 11 µM
measured = [
    ("CCONC(=O)/C=C/CNCCCCN1c2ccccc2CCc2ccc(Cl)cc21 [Compound 80, maleate]", "untagged HECT of NEDD4 wild-type (WT) (E3 ligase) (Homo sapiens)", "> 50%"),
    ("CCOC(=O)/C=C/CNCCCCN1c2ccc(CO)cc2CCc2ccc(Cl)cc21 [Compound 74, maleate]", "untagged HECT of NEDD4 wild-type (WT) (E3 ligase) (Homo sapiens)", "> 50%"),
    ("CCOC(=O)/C=C/CNCCCN1c2ccccc2C(=O)N(CCO)c2ccc(Cl)cc21 [Compound 55, maleate]", "untagged HECT of NEDD4 wild-type (WT) (E3 ligase) (Homo sapiens)", "< 30%"),
    ("COCCOC(=O)/C=C/CNCCCCN1c2ccccc2CCc2ccc(Cl)cc21 [Compound 102, maleate]", "untagged HECT of NEDD4 wild-type (WT) (E3 ligase) (Homo sapiens)", "> 50%"),
    ("CCOC(=O)/C=C/CNCCCCN1c2ccccc2C(=O)N(CCc2ccccc2)c2ccc(Cl)cc21 [Compound 44, maleate]", "untagged HECT of NEDD4 wild-type (WT) (E3 ligase) (Homo sapiens)", "> 50%"),
    ("O=C(/C=C/CNCCCCN1c2ccccc2CCc2ccc(Cl)cc21)NOCc1ccccc1 [Compound 79, maleate]", "untagged HECT of NEDD4 wild-type (WT) (E3 ligase) (Homo sapiens)", "> 50%"),
    ("CCOC(=O)/C=C/CNCCCCN1c2ccc(COC)cc2CCc2ccc(Cl)cc21 [Compound 75, maleate]", "untagged HECT of NEDD4 wild-type (WT) (E3 ligase) (Homo sapiens)", "> 50%"),
    ("CN(C/C=C/C(=O)c1ccccc1)CCCN1c2ccccc2CCc2ccc(Cl)cc21", "untagged HECT of NEDD4 wild-type (WT) (E3 ligase) (Homo sapiens)", "> 50%"),
    ("CN(C/C=C/C(=O)OCCOCCOCCOCCNC(=O)CCCC[C@@H]1SC[C@@H]2NC(=O)N[C@@H]21)CCCCN1c2ccccc2CCc2ccc(Cl)cc21", "untagged HECT of NEDD4 wild-type (WT) (E3 ligase) (Homo sapiens)", "> 50%"),
    ("CCOC(=O)/C=C/CNCCCN1c2cc(Cl)ccc2CCc2cncnc21 [Compound 32, fumarate]", "untagged HECT of NEDD4 wild-type (WT) (E3 ligase) (Homo sapiens)", "> 50%"),
    ("CCOC(=O)/C=C/CNCCCCN1c2ccccc2COc2ccc(Cl)cc21 [Compound 37, maleate]", "untagged HECT of NEDD4 wild-type (WT) (E3 ligase) (Homo sapiens)", "> 50%"),
    ("NC(=O)/C=C/CNCCCN1c2ccccc2CCc2ccc(Cl)cc21 [Compound 18, hydrochloride]", "untagged HECT of NEDD4 wild-type (WT) (E3 ligase) (Homo sapiens)", "< 30%"),
    ("O=C(O)/C=C/CNCCCN1c2ccccc2CCc2ccc(Cl)cc21 [Compound 16, 2,2,2-trifluoroacetate]", "untagged HECT of NEDD4 wild-type (WT) (E3 ligase) (Homo sapiens)", "< 30%"),
    ("COC(=O)/C=C/CN(C)CCCN1c2ccccc2CCc2ccc(Cl)cc21 [Compound 1, hydrochloride]", "untagged HECT of NEDD4 wild-type (WT) (E3 ligase) (Homo sapiens)", "30 to 50%"),
    ("CCOC(=O)/C=C/CN(CCCCN1c2ccccc2CCc2ccc(Cl)cc21)C(C)C [Compound 65, maleate]", "untagged HECT of NEDD4 wild-type (WT) (E3 ligase) (Homo sapiens)", "> 50%"),
]

====

Molecular target: untagged HECT of NEDD4L (E3 ligase) (Homo sapiens, UniProt Q96PU5)
Construct: using untagged HECT of NEDD4L (E3 ligase) instead of untagged HECT of NEDD4 wild-type (WT) (E3 ligase); made in house; host or cells: bacteria (printed for the NEDD4L HECT of the western-blot assay; not repeated here)
Sequence (Q96PU5 594-975 limits assumed): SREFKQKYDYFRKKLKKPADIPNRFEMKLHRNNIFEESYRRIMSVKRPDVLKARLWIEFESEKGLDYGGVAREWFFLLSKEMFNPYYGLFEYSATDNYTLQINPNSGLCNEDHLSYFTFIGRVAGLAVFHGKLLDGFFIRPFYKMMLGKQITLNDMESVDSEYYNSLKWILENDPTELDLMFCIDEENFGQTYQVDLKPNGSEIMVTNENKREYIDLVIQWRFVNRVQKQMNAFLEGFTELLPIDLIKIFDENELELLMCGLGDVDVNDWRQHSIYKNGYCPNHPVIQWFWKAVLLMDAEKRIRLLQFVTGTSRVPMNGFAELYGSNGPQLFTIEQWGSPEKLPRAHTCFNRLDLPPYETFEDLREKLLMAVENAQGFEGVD
Assay: In vitro ubiquitination assay TR-FRET based, NEDD4L
Format: biochemical
Conditions: read-out: percentage of inhibition (NEDD4L)
Counter-ions that a name gives are not always drawn.

# Molecule, Test System, inhibition at 11 µM
data = [
    ("CN(C/C=C/C(=O)OCCOCCOCCOCCNC(=O)CCCC[C@@H]1SC[C@@H]2NC(=O)N[C@@H]21)CCCCN1c2ccccc2CCc2ccc(Cl)cc21", "untagged HECT of NEDD4L (E3 ligase) (Homo sapiens, UniProt Q96PU5)", "< 15%"),
    ("CCOC(=O)/C=C/CNCCCCN1c2ccccc2CCc2ccc(Cl)cc21.O=C(O)/C=C\\C(=O)O [Compound 12, maleate]", "untagged HECT of NEDD4L (E3 ligase) (Homo sapiens, UniProt Q96PU5)", "< 15%"),
    ("CCOC(=O)/C=C/CCNCCCN1c2ccccc2CCc2ccc(Cl)cc21 [Compound 5, maleate]", "untagged HECT of NEDD4L (E3 ligase) (Homo sapiens, UniProt Q96PU5)", "< 15%"),
    ("CONC(=O)/C=C/CNCCCCN1c2ccccc2CCc2ccc(Cl)cc21 [Compound 78, maleate]", "untagged HECT of NEDD4L (E3 ligase) (Homo sapiens, UniProt Q96PU5)", "< 5%"),
    ("C#CCON(C)C(=O)/C=C/CN(C)CCCCN1c2ccccc2CCc2ccc(Cl)cc21 [Compound 77, maleate]", "untagged HECT of NEDD4L (E3 ligase) (Homo sapiens, UniProt Q96PU5)", "< 15%"),
    ("CCOC(=O)/C=C/CNCCCCN1c2ccccc2C(=O)N(C)c2ccc(Cl)cc21 [Compound 29, maleate]", "untagged HECT of NEDD4L (E3 ligase) (Homo sapiens, UniProt Q96PU5)", "≤ 20%"),
    ("CCOC(=O)/C=C/CNCCCCN1c2cc(Cl)ccc2C(=O)N(Cc2ccccc2)c2ccccc21 [Compound 56, maleate]", "untagged HECT of NEDD4L (E3 ligase) (Homo sapiens, UniProt Q96PU5)", "≤ 20%"),
    ("CON(C)C(=O)/C=C/CN(C)CCCCN1c2ccccc2CCc2ccc(Cl)cc21", "untagged HECT of NEDD4L (E3 ligase) (Homo sapiens, UniProt Q96PU5)", "< 5%"),
    ("CONC(=O)/C=C/CN(C)CCCCN1c2ccccc2CCc2ccc(Cl)cc21 [Compound 85, maleate]", "untagged HECT of NEDD4L (E3 ligase) (Homo sapiens, UniProt Q96PU5)", "< 5%"),
]

====

Attribute: inhibition at 11 µM
Target: untagged HECT of NEDD4 wild-type (WT) (E3 ligase) (Homo sapiens)
Construct: untagged HECT of NEDD4 wild-type (WT) (E3 ligase); made in house
Test: In vitro ubiquitination assay TR-FRET based (self-ubiquitination of NEDD4)
Format: biochemical
Conditions: at 11 μM; pre-incubated for 1 hour; AUC of 120 minutes kinetic; read-out: percentages of inhibition (NEDD4)
Experimental: FIG. 1: TR-FRET kinetic assay performed with compound 12. […] Reactions were initiated with the addition of ATP. […] The activity of the enzyme is continuously and real time detected and it is expressed as % of signal/background during the time. In order to quantitatively measure the self-ubiquitination process of the E3 HECT ligase NEDD4 the inventors employed a TR-FRET based assay. […] Kinetic raw data were analyzed by Area Under the Curve (AUC) method using Prism GraphPad software. […]
Counter-ions that a name gives are not always drawn.
Outcome Measure: inhibition at 11 µM

# Molecule, Outcome Measure, Value Measured
data = [
    ("CCOC(=O)/C=C/CNCCCN1c2ccccc2CCc2ccc(Br)cc21 [Compound 15, maleate]", "inhibition at 11 µM", "> 50%"),
    ("CNC(=O)/C=C/CNCCCN1c2ccccc2CCc2ccc(Cl)cc21 [Compound 19, hydrochloride]", "inhibition at 11 µM", "< 30%"),
    ("CC(C)ONC(=O)/C=C/CNCCCCN1c2ccccc2CCc2ccc(Cl)cc21 [Compound 81, maleate]", "inhibition at 11 µM", "> 50%"),
    ("CCOC(=O)/C=C/CNCCCN1c2cc(Cl)ccc2C(=O)N(CCO)c2ccccc21 [Compound 47, maleate]", "inhibition at 11 µM", "> 50%"),
    ("CCOC(=O)/C=C/CNCCCCN1c2ccc(O)cc2CCc2ccc(Cl)cc21 [Compound 39, maleate]", "inhibition at 11 µM", "> 50%"),
    ("CCOC(=O)/C=C/CNCCCC(=O)N1c2ccccc2CCc2ccc(Cl)cc21 [Compound 38, maleate]", "inhibition at 11 µM", "> 50%"),
    ("CCOC(=O)/C=C/CNCCCCN1c2cc(Cl)ccc2C(=O)N(CCO)c2ccccc21 [Compound 46, maleate]", "inhibition at 11 µM", "> 50%"),
    ("CCOC(=O)/C=C/CNCCCCN1c2ccccc2CCc2ccc(Cl)cc21.O=C(O)/C=C\\C(=O)O [Compound 12, maleate]", "inhibition at 11 µM", "> 50%"),
    ("CCOC(=O)/C=C/CNCCCN1c2ccccc2NC(=O)c2ccc(Cl)cc21 [Compound 23, maleate]", "inhibition at 11 µM", "30 to 50%"),
    ("CCOC(=O)/C=C/CNCCCN1c2ccccc2CCc2ccccc21 [Compound 11, fumarate]", "inhibition at 11 µM", "30 to 50%"),
    ("CCOC(=O)/C=C/CNCCCN1c2ccccc2CCc2ccc(Cl)cc21 [Compound 4, fumarate]", "inhibition at 11 µM", "> 50%"),
    ("CCOC(=O)/C=C/CNCCCCN1c2ccc(OCCOCCOC)cc2CCc2ccc(Cl)cc21 [Compound 98, maleate]", "inhibition at 11 µM", "> 50%"),
    ("CCOC(=O)/C=C/CNCCCCN1c2ccccc2NC(=O)c2ccc(Cl)cc21 [Compound 24, maleate]", "inhibition at 11 µM", "> 50%"),
    ("CCOC(=O)/C=C/CNCCCCN1c2cc(Cl)ccc2NC(=O)c2ccccc21 [Compound 41, maleate]", "inhibition at 11 µM", "> 50%"),
    ("O=C(O)/C=C/CNCCCCN1c2ccccc2CCc2ccc(Cl)cc21 [Compound 17, 2,2,2-trifluoroacetate]", "inhibition at 11 µM", "< 30%"),
    ("CCOC(=O)/C=C/CNCCCCN1c2cc(Cl)ccc2C(=O)N(C)c2ccccc21 [Compound 42, maleate]", "inhibition at 11 µM", "> 50%"),
    ("CCC(=O)/C=C/CN(C)CCCCN1c2ccccc2CCc2ccc(Cl)cc21 [Compound 54, maleate]", "inhibition at 11 µM", "> 50%"),
    ("CCOC(=O)/C=C/CNCCCN1c2cc(Cl)ccc2COc2ccccc21 [Compound 35, maleate]", "inhibition at 11 µM", "> 50%"),
]
